- protocol-summary: Solubility of the compound in water at pH 7
- Assay type: physicochemical
measurement-kind: log10 of solubility (log10 of the value in µg/mL)
Annotation: log10 of solubility, µg/mL basis.

Worked cases, log10 of solubility given:
Input line: Query log10 of solubility for `CO[C@H]1/C=C/O[C@@]2(C)Oc3c(C)c(O)c4c(O)c(c(CNC5CCOCC5)c(O)c4c3C2=O)NC(=O)/C(C)=C\C=C\[C@H](C)[C@H](O)[C@@H](C)[C@@H](O)[C@@H](C)[C@H](OC(C)=O)[C@@H]1C`
Output line: 2.70

Input line: Query log10 of solubility for `CO[C@H]1/C=C/O[C@@]2(C)Oc3c(C)c(O)c4c(O)c(c(CN5CCOCCOCCOCCOCC5)c(O)c4c3C2=O)NC(=O)/C(C)=C\C=C\[C@H](C)[C@H](O)[C@@H](C)[C@@H](O)[C@@H](C)[C@H](OC(C)=O)[C@@H]1C`
Output line: 3.20

Input line: Query log10 of solubility for CO[C@H]1/C=C/O[C@@]2(C)Oc3c(C)c(O)c4c(O)c(c(CNCC5COCCOCCOCCOCCOCCO5)c(O)c4c3C2=O)NC(=O)/C(C)=C\C=C\[C@H](C)[C@H](O)[C@@H](C)[C@@H](O)[C@@H](C)[C@H](OC(C)=O)[C@@H]1C (stereo partly drawn)
Output line: 3.00

Input line: Query log10 of solubility for `CO[C@H]1/C=C/O[C@@]2(C)Oc3c(C)c(O)c4c(O)c(c(CNCC5CCOCC5)c(O)c4c3C2=O)NC(=O)/C(C)=C\C=C\[C@H](C)[C@H](O)[C@@H](C)[C@@H](O)[C@@H](C)[C@H](OC(C)=O)[C@@H]1C`
Output line: 2.40

More entries:
Input line: Query log10 of solubility for CO[C@H]1/C=C/O[C@@]2(C)Oc3c(C)c(O)c4c(O)c(c(CNCC5COCCOCCOCCOCCO5)c(O)c4c3C2=O)NC(=O)/C(C)=C\C=C\[C@H](C)[C@H](O)[C@@H](C)[C@@H](O)[C@@H](C)[C@H](OC(C)=O)[C@@H]1C (stereo partly drawn)
Output line: 2.08

Input line: Query log10 of solubility for `CO[C@H]1/C=C/O[C@@]2(C)Oc3c(C)c(O)c4c(O)c(c(CNc5ccc6c(c5)OCCOCCOCCOCCOCCO6)c(O)c4c3C2=O)NC(=O)/C(C)=C\C=C\[C@H](C)[C@H](O)[C@@H](C)[C@@H](O)[C@@H](C)[C@H](OC(C)=O)[C@@H]1C`
Output line: 2.04

Input line: Query log10 of solubility for `CO[C@H]1/C=C/O[C@@]2(C)Oc3c(C)c(O)c4c(O)c(c(CN5CCOCCOCCOCCOCCOCC5)c(O)c4c3C2=O)NC(=O)/C(C)=C\C=C\[C@H](C)[C@H](O)[C@@H](C)[C@@H](O)[C@@H](C)[C@H](OC(C)=O)[C@@H]1C`
Output line: 3.08

Provenance of the data: ChEMBL document CHEMBL3611969
